Where do these numbers come from? They come from ChEMBL document CHEMBL1140381.

The entries below are paired with their reported inhibition at 50 µg/mL.
system: Mycobacterium avium; experiment: Inhibition of growth of Mycobacterium avium (ATCC 25291) was determined using microplate alamar blue assay at 50 ug/mL concentration with compound dissolved in DMSO; assay type: functional
A complete answer gives the number and then names the unit.

# count of solved cases: 3
{"Smiles code": "CCCCCCCCC#Cc1cn([C@H]2C[C@H](O)[C@@H](CO)O2)c(=O)nc1N", "inhibition at 50 µg/mL": "50%"}
{"Smiles code": "CCCCCCCCCCC#Cc1cn([C@H]2C[C@H](O)[C@@H](CO)O2)c(=O)[nH]c1=O", "inhibition at 50 µg/mL": "0%"}
{"Smiles code": "CCCCCCCCCCCCC#Cc1cn([C@H]2C[C@H](O)[C@@H](CO)O2)c(=O)[nH]c1=O", "inhibition at 50 µg/mL": "30%"}

Now for the compound whose inhibition at 50 µg/mL we want.
In: Which inhibition at 50 µg/mL reading was recorded for the compound CCCCCCCCCCC#Cc1cn([C@H]2C[C@H](O)[C@@H](CO)O2)c(=O)nc1N ?
Out: 60%
